B1: LINE1-full (parent)
chain: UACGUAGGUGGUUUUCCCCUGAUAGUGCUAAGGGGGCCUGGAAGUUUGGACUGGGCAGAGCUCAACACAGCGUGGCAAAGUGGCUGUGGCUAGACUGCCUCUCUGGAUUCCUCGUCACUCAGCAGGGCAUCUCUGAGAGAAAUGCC

Variants of: B1
Test: self-cleavage, relative activity (ratio to wild type); higher = more cleavage; in vitro, sequencing; the parent is a self-cleaving ribozyme
Assign rule met to entries whose self-cleavage meets or exceeds 0.3; assign rule not met to the rest.

[Q] Could you verify whether the entry UACGUAGGUGGUUUUCCCCUGAUAGUGCUAAGGGGGCCUGGAAGUUUGGACUGGGCAGAGCUCAACACAGCGUGGCAAAGUGGCUGUGGCUAGACCGCCUCUCUGGAUUCCUCGGCACUCAGCAGGGCAUCUCUGAGAGAAAUGCC shows self-cleavage of no less than 0.3?
[A] rule not met

[Q] Also UACGUAGGUGGUUUUCCCCUGAUAGUACUAAGGGGGCCUGGAAGUUUGGACUGGGCAGGGCUCAACACAGCGUGGCAAAGUGGCUGUGGCUAGACUGCCUCUCUGGAUUCCUCGUCACUCAGCAGGGCAUCUCUGAGAGAAAUGCC ?
[A] rule not met

[Q] Also UACGUAGGUGGUUUUCCCCUGAUAGUGCUAUGGGGGCCUGGAAGUUUGGACUGGGCAGAGCUCAACACAGCGUGGCAAAGUGGCUGUGGCUAGACUGCCUCUCUGGAUUCCUCGUCACUCUGCAGGGCAUCUCUGAGAGAAAUGCC ?
[A] rule met

[Q] Also UGCGUAGGUGGUUUUCCCCUGAUAGUGCUAAGGGGGCCUGGAAGUUUGGACUGGGCAGAGCUCAACACAGCGUGGCAAAGUGGCUGUGGCUAGACUGCCUCUCUGGAUUCCUCGCCACUCAGCAGGGCAUCUCUGAGAGAAAUGCC ?
[A] rule met

[Q] Also UACGUAGGUGGUUUUCCCCUGAUAGUGCUAAGGGGGCCUGGAAGUUUGGACUGGGCAGAGCUCAACACAGCGUGGCAAAGUGGCUGUAGCUAGACUGCCUCUCUGGAUUCCUCGUCACUCAGCAGGGCAUCUCUGAGAGAAGUGCC ?
[A] rule not met

[Q] Also UACGUAGGUGGUUUACCCCUGAUAGUGCUAAGGGGGCCUGGAAGUUUGGACUGGGCAGAGCUCAACACAGCGUGGCAAGGUGGCUGUGGCUAGACUGCCUCUCUGGAUUCCUCGUCACUCAGCAGGGCAUCUCUGAGAGAAAUGCC ?
[A] rule not met

[Q] Also UACGUAGGUGGUUUUCCCCUGAUAGUGCUAAGGGGGCCUGGAAGUUUGGACUGGGCAGAGCUCAACACAGCGUGGCACAGUGGCUGUGGCUAGACUGCCUCUCUGGAUUCCUCGUCACUCAGCGGGGCAUCUCUGAGAGAAAUGCC ?
[A] rule met

[Q] Also UACGUAGGUGGUUUUCCCCUGAUAGCGCUAAGGGGGCCUGGAAGUUUGGACUGGGCAGAGCUCAACACAGCGUGGCAAAGUGGCUGUGGCUAGACUGCCUCUCUAGAUUCCUCGUCACUCAGCAGGGCAUCUCUGAGAGAAAUGCC ?
[A] rule met

[Q] Also UACGUAGGUGGUUUUCCCUUGAUAGUGCUAAGGGGGCCUGGAAGUUUGGACUGGGCAGAGCUCAACACAGCGUGGCAAAGUGGCUGUGGCUAGACUGCCUCUCUGGAUUCCUCGUCACUCAGCAGGGCAUCUCUGAGAGGAAUGCC ?
[A] rule met

[Q] Also UACGUAGGUGGUUUUCCCCUGAUAGUGCUAAGGGGGCCUGGAAGUUUGGACUGGGCAGAGCUCAACACAGCGUAGCAAAGUGGCUGUGGCUAGACUGCCUCUCUGGAUUCCUCGUCACUCAGCUGGGCAUCUCUGAGAGAAAUGCC ?
[A] rule met

[Q] Also UACGUAGGUGGUCUUCCCCUGAUAGUGCUAAGGGGGCCUGGAAGUUUGGACUGGGCAGAGCUCAACACAGCGUGGCAAAGUGGCUGUGGCUAGACUGCCUCUCUGGAUUCCUCGUCACUUAGCAGGGCAUCUCUGAGAGAAAUGCC ?
[A] rule met

[Q] Also UACGUAGGUGGUUUUCCCCUGAUAGUGCUAAGGGGGCCUGGAAGUUUGGGCUGGGCAGAGCUCAACACAGCGUGGCAAAGUGGCUGUGGCUAGACUGCCUCUCUGGAUUCCUCGUCACUCAGCAGGGCAUCUCUGAGAGAAAUUCC ?
[A] rule not met

[Q] Also UACGUAGGUGGUUUUCCCCUGAUAGUACUAAGGGGGCCUGGAAGUUUGGACUGGGCAGAGCUCAACACAGCGUGGCAAAGUGGCUGUAGCUAGACUGCCUCUCUGGAUUCCUCGUCACUCAGCAGGGCAUCUCUGAGAGAAAUGCC ?
[A] rule not met

[Q] Also UACGUAGGUGGUUUUCCCCUGAUAGUGCUAAGGAGGCCUGGAAGUUUGGACUGGGCAGAGCUCAACACAGCGUGGCAAAGUGGCUGUGGCUAGACUGCCUCUCUGGAUUCCUCGUCACUCAGCAGGGCGUCUCUGAGAGAAAUGCC ?
[A] rule met

[Q] Also UACGUAGGUGGUUUUCCCCUGAUAGUGCUAAGGGGGCCUGGAAGUUUGGACUGGGCAGAGCUCAACACAGCGUGGCAAAGUGGCUGUGGCUAGGCUGCCUCACUGGAUUCCUCGUCACUCAGCAGGGCAUCUCUGAGAGAAAUGCC ?
[A] rule not met

[Q] Also UACGUAGGUGGUUUUCCCCUGAUAGUGCUAAGGGGGCCUGGAAGUUUGGACUGGGCAGAGCUCAACACUGCGUGGCAAAGUGGCUGUGGCUAGACUGCCUCUCUGGAUUCCUCUUCACUCAGCAGGGCAUCUCUGAGAGAAAUGCC ?
[A] rule not met

[Q] Also UACGUAGGUGGUUUUCCCCUGAUAUUGCUAAGGGGGCCUGGGAGUUUGGACUGGGCAGAGCUCAACACAGCGUGGCAAAGUGGCUGUGGCUAGACUGCCUCUCUGGAUUCCUCGUCACUCAGCAGGGCAUCUCUGAGAGAAAUGCC ?
[A] rule met

[Q] Also UACGUAGGUGGUUUUCCCCUGAUAGUGCUAAGGGGGCCUGGAAGUUUGGACUGGGCAGAGCUCAACACAGCGUGGCAAAGUGGCUGUGGCUAGACAGCCUCUCUGGAUACCUCGUCACUCAGCAGGGCAUCUCUGAGAGAAAUGCC ?
[A] rule not met

[Q] Also UACGUAGGUGGUUUUCACCUGAUAGUGCUAAGGGGGCCUGGAAGUUUGGACUGGGCAGAGCUCAACACAGCGUGGCAAAGUGGCUGUGGCUAGACUGCCUCUCUGGAUUCCUCGUCACUCAGCAGGGCAUCACUGAGAGAAAUGCC ?
[A] rule met

[Q] Also UACGUAGGUGGUUUUCCCCUGAUAGUGCUAAGGGGGCCUGGAAGUUUGGACUGGGCAGAGCUCAACACAGCGUGGCAAAGUGGCUGUGGCUAGACUGCCUCUCUGGAUUCCUCACCACUCAGCAGGGCAUCUCUGAGAGAAAUGCC ?
[A] rule met

[Q] Also UACGUAGGUGGUUUUCCCCUGAUAGUGCUAAGGGGGCCUGGAAGUUUGGACUGGGCAGAGCUCAACACAGCGUGGCAAAGUGGCUGUGGCUAGACUGCCUCUCUGGAUUCCUCGUCACCCAGCAGGGCUUCUCUGAGAGAAAUGCC ?
[A] rule met
